- Assay Name: gradient 5% acetonitrile 3 min, to 50% in 2 min, to 85% in 15 min, held 3 min, 100 µL/min
- Run Parameters: column: Zorbax Extend-C18 2.1 x 50 mm; eluents: water / acetonitrile, 0.1% formic acid
Lab note: compare RP-LC retention time with 1000 s, writing t if less and f if equal or more.

Enquiry: is_below(RP-LC retention time, 1000 s) for `COc1ccc(Cl)cc1NC(=O)CSc1nc(-c2ccccc2C)ns1` ?
Return: f

Enquiry: is_below(RP-LC retention time, 1000 s) for `COc1ccc(CCc2nc3nccc(-c4ccncc4)n3n2)cc1OC` ?
Return: t

Enquiry: is_below(RP-LC retention time, 1000 s) for `NC(=O)c1cccn1Cc1ccc(Cl)cc1` ?
Return: t

Enquiry: is_below(RP-LC retention time, 1000 s) for `Cc1ccc(CNC(=O)CN2C(=O)CCCc3cc(S(=O)(=O)N4CCC(C)CC4)ccc32)cc1` ?
Return: t

Enquiry: is_below(RP-LC retention time, 1000 s) for `Cc1nc(N2CCCC2)c2c(C(=O)Nc3ccc(Cl)cc3)c(C)oc2n1` ?
Return: t

Enquiry: is_below(RP-LC retention time, 1000 s) for `CCn1cc(-c2nc(C)c(C(=O)Nc3ccccc3OC)s2)c2cccnc21` ?
Return: f

Enquiry: is_below(RP-LC retention time, 1000 s) for `Clc1ccc2nc(-c3ccccc3)c(Nc3ccc4c(c3)OCO4)n2c1` ?
Return: t

Enquiry: is_below(RP-LC retention time, 1000 s) for `CCN(CC)CCNC(=O)Cn1c2ccccc2c2nc(=O)cc(C)n21` ?
Return: t

Enquiry: is_below(RP-LC retention time, 1000 s) for CCNC(=O)C1CCCN(c2nc3ncn(CC(=O)Nc4ccc(F)c(Cl)c4)c(=O)c3s2)C1 (centres undefined) ?
Return: t

---

- Assay Name: gradient 5% acetonitrile 3 min, to 50% in 2 min, to 85% in 15 min, held 3 min, 100 µL/min
- Run Parameters: column: Zorbax Extend-C18 2.1 x 50 mm; eluents: water / acetonitrile, 0.1% formic acid
Answer each item with its documented RP-LC retention time.
Give the value, in units of s, as a plain number.

Enquiry: Suppose we examine the compound `COc1ccc(-c2nnc(-c3nc(NCc4ccc(C)o4)c4ccccc4n3)o2)cc1` ; what RP-LC retention time value has been reported?
Return: 985

Enquiry: Suppose we examine the compound `COc1ccccc1-c1cc2c(=O)n(Cc3nc(-c4ccccc4)oc3C)ccn2n1` ; what RP-LC retention time value has been reported?
Return: 1120

Enquiry: Suppose we examine the compound `CC(C)(C)NS(=O)(=O)c1cc(-c2nnc(-c3ccccc3)o2)ccc1F` ; what RP-LC retention time value has been reported?
Return: 985

Enquiry: Suppose we examine the compound `CC(C)C(=O)Nc1cc2c(cc1S(=O)(=O)c1ccc(F)cc1)n(C)c(=O)n2C` ; what RP-LC retention time value has been reported?
Return: 790

Enquiry: Suppose we examine the compound `CC(C)(C)NC(=O)N1CCC(CNC(=O)c2ccsc2)CC1` ; what RP-LC retention time value has been reported?
Return: 657

---

- Assay Name: gradient 5% acetonitrile 3 min, to 50% in 2 min, to 85% in 15 min, held 3 min, 100 µL/min
- Run Parameters: column: Zorbax Extend-C18 2.1 x 50 mm; eluents: water / acetonitrile, 0.1% formic acid
Answer each item with its documented RP-LC retention time.
Give the value, in units of s, as a plain number.

Enquiry: Suppose we examine the molecule `O=C(Nc1ccc(F)cc1Cl)c1c(O)c2cccnc2n(-c2ccc(F)cc2)c1=O` ; what RP-LC retention time value has been reported?
Return: 1300

Enquiry: Suppose we examine the molecule `CN1CCC(NC(=O)c2ccc(-n3cc(CNC(=O)C4CCC4)cn3)cc2)CC1` ; what RP-LC retention time value has been reported?
Return: 585

Enquiry: Suppose we examine the molecule Cc1ccc(S(=O)(=O)N2CC(=O)N(c3ccc(F)cc3)C(C)(C(=O)NC3CCCC3)C2)cc1 (stereo not given) ; what RP-LC retention time value has been reported?
Return: 956

Enquiry: Suppose we examine the molecule `CC(C)CN1CCN(S(=O)(=O)c2ccc(-c3nnc(C4CCCC4)o3)o2)CC1` ; what RP-LC retention time value has been reported?
Return: 692

Enquiry: Suppose we examine the molecule `COCCNS(=O)(=O)c1cccc(-c2nnc(-c3ccc(C)cc3)o2)c1` ; what RP-LC retention time value has been reported?
Return: 880

Enquiry: Suppose we examine the molecule `O=C(NCCN1CCCC1)c1cc2n(n1)CCCN(Cc1ccc(Cl)cc1)C2=O` ; what RP-LC retention time value has been reported?
Return: 627

Enquiry: Suppose we examine the molecule Cc1noc(C)c1S(=O)(=O)NCC(c1cccnc1)c1cn(C)c2ccccc12 (stereo not given) ; what RP-LC retention time value has been reported?
Return: 700

Enquiry: Suppose we examine the molecule `COCCNC(=O)N1CC(c2nc(C3CC3)no2)C1` ; what RP-LC retention time value has been reported?
Return: 578

Enquiry: Suppose we examine the molecule `CCc1nc(OCC(=O)Nc2cc(Cl)ccc2Cl)c2ccccc2n1` ; what RP-LC retention time value has been reported?
Return: 964

Enquiry: Suppose we examine the molecule `O=C(CSC1=Nc2ccccc2N=C(c2ccc(F)cc2)C1)NC1CCCC1` ; what RP-LC retention time value has been reported?
Return: 1130

Enquiry: Suppose we examine the molecule `Cc1nc(Nc2ccc(F)cn2)sc1C(=O)NCCCc1ccccc1` ; what RP-LC retention time value has been reported?
Return: 883

Enquiry: Suppose we examine the molecule `COc1ccccc1-c1noc(Cn2c(=O)n(C(C)C)c(=O)c3ccccc32)n1` ; what RP-LC retention time value has been reported?
Return: 994

Enquiry: Suppose we examine the molecule `O=C(c1nnc(-c2ccc(S(=O)(=O)N3CCOCC3)cc2)o1)N1CCc2ccccc2C1` ; what RP-LC retention time value has been reported?
Return: 917

Enquiry: Suppose we examine the molecule `CNC(=O)CN1CCC(Oc2cc3c(Nc4cccc(Cl)c4F)ncnc3cc2OC)CC1` ; what RP-LC retention time value has been reported?
Return: 610

Enquiry: Suppose we examine the molecule `O=C(Cn1cccc(-c2nc(-c3ccc(Cl)cc3)no2)c1=O)N1CCCCC1` ; what RP-LC retention time value has been reported?
Return: 855

Enquiry: Suppose we examine the molecule `CCOc1ccccc1CNC(=O)CN1CCN(Cc2ccccc2)C1=O` ; what RP-LC retention time value has been reported?
Return: 848

Enquiry: Suppose we examine the molecule `CCCn1cc(C(=O)Nc2ccc3c(c2)OCCO3)c2cccnc21` ; what RP-LC retention time value has been reported?
Return: 833

Enquiry: Suppose we examine the molecule `CS(=O)(=O)c1nc2ccc(NS(=O)(=O)c3ccc4c(c3)OCCO4)cc2s1` ; what RP-LC retention time value has been reported?
Return: 792

Enquiry: Suppose we examine the molecule `CN(CC1CCOCC1)C(=O)c1cccs1` ; what RP-LC retention time value has been reported?
Return: 664

Enquiry: Suppose we examine the molecule `CCOc1ccccc1N(C)C(=O)Cc1c(C(=O)O)c(C)cn1C` ; what RP-LC retention time value has been reported?
Return: 773
